Source: ChEMBL document CHEMBL1154743

# System: SH-SY5Y
# method description: Cytotoxicity against human SH-SY5Y cells assessed as reduction of total cellular NAD(P) level at 300 nM relative to control
# Format: functional
# Design: scale not given: the % may be the effect or the level left
recorded endpoint: Activity (%)

- compound string: "O=C(CCCCCCCn1cc(-c2cccnc2)nn1)Nc1ccccc1-c1ccccc1"
  result units: "%"
  assay result: 9.9
- compound string: "O=C(CCCCCCCCn1cc(-c2cccnc2)nn1)Nc1ccccc1-c1ccccc1"
  result units: "%"
  assay result: 35.6
- compound string: "O=C(CCCCCCn1cc(-c2cccnc2)nn1)NCC(c1ccccc1)c1ccccc1"
  result units: "%"
  assay result: 83.8
- compound string: "N#CCCCc1cn(-c2ccncc2)nn1"
  result units: "%"
  assay result: 87.8
- compound string: "O=C(CCCCCCCCn1cc(-c2cccnc2)nn1)Nc1ccccc1Cc1ccccc1"
  result units: "%"
  assay result: 74.7
- compound string: "O=C(CCCCCCn1cc(-c2cccnc2)nn1)Nc1ccccc1-c1ccccc1"
  result units: "%"
  assay result: 88.2
- compound string: "O=C(CCCCCCn1cc(-c2cccnc2)nn1)Nc1ccccc1Cc1ccccc1"
  result units: "%"
  assay result: 86.1
- compound string: "O=C(CCCCCCCCn1cc(-c2cccnc2)nn1)Nc1ccccc1Oc1ccccc1"
  result units: "%"
  assay result: 79.5
- compound string: "O=C(CCCCCCCn1cc(-c2cccnc2)nn1)n1c2ccccc2c2ccccc21"
  result units: "%"
  assay result: 12
- compound string: "O=C(CCCCCCCn1cc(-c2cccnc2)nn1)NCC(c1ccccc1)c1ccccc1"
  result units: "%"
  assay result: 11
- compound string: "O=C(CCCCCCCn1cc(-c2cccnc2)nn1)Oc1ccccc1-c1ccccc1"
  result units: "%"
  assay result: 74.7
- compound string: "O=C(CCCCCCCn1cc(-c2cccnc2)nn1)Nc1ccccc1Cc1ccccc1"
  result units: "%"
  assay result: 75.2
- compound string: "O=C(CCCCCCCn1cc(-c2cccnc2)nn1)Nc1ccccc1Oc1ccccc1"
  result units: "%"
  assay result: 87.9
- compound string: "O=C(CCCCCCCCn1cc(-c2cccnc2)nn1)NCC(c1ccccc1)c1ccccc1"
  result units: "%"
  assay result: 77.3
- compound string: "O=C(CCCCCCn1cc(-c2cccnc2)nn1)Nc1ccccc1Oc1ccccc1"
  result units: "%"
  assay result: 81.3
- compound string: "O=C(CCCCCCn1cc(-c2cccnc2)nn1)Nc1ccccc1Cl"
  result units: "%"
  assay result: 79.5
- compound string: "COc1ccccc1NC(=O)CCCCCCn1cc(-c2cccnc2)nn1"
  result units: "%"
  assay result: 87.9
